experimental system: Glycogen synthase kinase-3 beta (Homo sapiens)
experimental protocol: Inhibition of human recombinant GSK3beta at 10 uM after 30 mins by luminescence assay in presence of ATP
Sequence (P49841 whole entry, looked up): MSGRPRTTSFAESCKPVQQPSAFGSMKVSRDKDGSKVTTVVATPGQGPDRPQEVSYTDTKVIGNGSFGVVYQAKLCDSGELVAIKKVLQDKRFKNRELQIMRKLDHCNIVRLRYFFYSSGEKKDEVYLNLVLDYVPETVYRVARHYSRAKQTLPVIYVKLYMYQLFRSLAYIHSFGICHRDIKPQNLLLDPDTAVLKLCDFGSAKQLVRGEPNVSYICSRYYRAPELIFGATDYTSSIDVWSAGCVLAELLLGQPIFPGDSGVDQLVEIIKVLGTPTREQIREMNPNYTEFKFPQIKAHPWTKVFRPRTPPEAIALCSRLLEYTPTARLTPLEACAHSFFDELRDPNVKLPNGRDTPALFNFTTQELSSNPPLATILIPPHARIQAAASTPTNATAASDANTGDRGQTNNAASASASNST
Active and inactive are the calls of the source. No cut-off for these calls is given here.
measured quantity: inhibition

>>> print(df.to_string())
                             compound_smiles  measured_quantity    result
 0  OCC/N=c1\nc(-c2ccccc2)n(-c2cccc3ccccc23)s1         inhibition     > 60%
 1  Br.COc1ccc(-c2n/c(=N\c3ccccc3)sn2-c2ccccc2)cc1         inhibition     > 60%
 2  COc1ccc(/C(=N\c2ccccc2)NC(=S)NCc2cccnc2)cc1         inhibition  inactive
 3  c1ccc(-n2s/c(=N/Cc3cccnc3)nc2-c2cccc3ccccc23)cc1         inhibition     > 60%
 4     COc1ccc(/N=C(/NC(=S)NCCO)c2ccccc2)cc1         inhibition  inactive
 5   OCCNC(=S)N/C(=N/c1ccccc1)c1cccc2ccccc12         inhibition  inactive
 6      CCCCCc1n/c(=N\Cc2cccnc2)sn1-c1ccccc1         inhibition     > 60%
 7  CCOC(=O)CNC(=S)N/C(=N/c1ccc([N+](=O)[O-])cc1)c1ccccc1         inhibition  inactive
 8   CCCCCNC(=S)N/C(=N/c1ccccc1)c1ccc(OC)cc1         inhibition  inactive
 9       CCCCCNC(=S)N/C(=N/c1ccccc1)c1ccccc1         inhibition  inactive
10  c1ccc(-c2n/c(=N\Cc3cccnc3)sn2-c2cccc3ccccc23)cc1         inhibition     > 60%
11  CCCCC/N=c1\nc(-c2ccc(OC)cc2)n(-c2ccccc2)s1         inhibition     > 60%
12  Br.c1ccc(-c2n/c(=N\C3CCCCC3)sn2-c2ccccc2)cc1         inhibition     > 60%
13  CCOC(=O)CNC(=S)N/C(=N/c1ccccc1)c1ccc(OC)cc1         inhibition  inactive
14    S=C(N/C(=N/c1ccccc1)c1ccccc1)Nc1ccccn1         inhibition  inactive
15   S=C(NCc1cccnc1)N/C(=N/c1ccccc1)c1ccccc1         inhibition  inactive
16  c1ccc(/N=c2\nc(-c3ccccc3)n(-c3ccccc3)s2)cc1         inhibition     > 60%
17  Br.COc1ccc(-n2s/c(=N/Cc3cccnc3)nc2-c2ccccc2)cc1         inhibition     > 60%
18    CCCCC/N=c1\nc(-c2ccccc2)n(-c2ccccc2)s1         inhibition     > 60%
19   CCOC(=O)CNC(=S)N/C(=N/c1ccccc1)c1ccccc1         inhibition  inactive
20  Br.COc1ccc(-c2n/c(=N\Cc3cccnc3)sn2-c2ccccc2)cc1         inhibition     > 60%
21  S=C(NCCN1CCOCC1)N/C(=N/c1ccccc1)c1ccccc1         inhibition  inactive
22  CCOC(=O)C/N=c1\nc(-c2ccccc2)n(-c2ccccc2)s1         inhibition     > 60%

----------
experimental protocol: Effective permeability across porcine polar brain lipid after 4 hrs by PAMPA
measurement conditions: pig, PAMPA
As shown below, each of these compounds has a reported Papp at 4 h value.
measured quantity: Papp at 4 h (×10⁻⁶ cm/s)

>>> df
                             compound_smiles  quantitative_result
 0  Br.CCOC(=O)C/N=c1\nc(-c2ccccc2)n(-c2ccc(OC)cc2)s1                  4.4
 1  Br.COc1ccc(-c2n/c(=N\CCO)sn2-c2ccccc2)cc1                 13.7
 2  Br.c1ccc(-c2n/c(=N\CCN3CCOCC3)sn2-c2ccccc2)cc1                  7.2
 3  CN1C(C(=O)Nc2ccccn2)=C(O)c2ccccc2S1(=O)=O                  1.7
 4  Br.c1ccc(-c2n/c(=N\Cc3cccnc3)sn2-c2ccccc2)cc1                 10.7
 5  Br.CCOC(=O)C/N=c1\nc(-c2ccc(OC)cc2)n(-c2ccccc2)s1                    4
 6  Br.COc1ccc(-c2n/c(=N\Cc3cccnc3)sn2-c2ccccc2)cc1                  4.8
 7  Br.OCC/N=c1\nc(-c2cccc3ccccc23)n(-c2ccccc2)s1                 10.2
 8        Br.N=c1nc(-c2ccccc2)n(-c2ccccc2)s1                  9.1
 9  Br.CCOC(=O)C/N=c1\nc(-c2ccccc2)n(-c2ccccc2)s1                  6.2
10  CCCCC/N=c1\nc(-c2ccc(OC)cc2)n(-c2ccccc2)s1.Cl                  8.5
11   Cl.OCC/N=c1\nc(-c2ccccc2)n(-c2ccccc2)s1                 13.6

----------
experimental system: Glycogen synthase kinase-3 beta (Homo sapiens)
experimental protocol: Inhibition of human recombinant GSK3beta after 30 mins by luminescence assay in presence of ATP
Sequence (P49841 whole entry): as the sequence (P49841 whole entry, looked up) above
pIC50: −log10 of the molar value.
measured quantity: pIC50

                            compound_smiles  measured_quantity  quantitative_result
0  OCC/N=c1\nc(-c2ccccc2)n(-c2cccc3ccccc23)s1              pIC50                 6.52
1    CCCCC/N=c1\nc(-c2ccccc2)n(-c2ccccc2)s1              pIC50                 5.85
2  Br.COc1ccc(-c2n/c(=N\CCO)sn2-c2ccccc2)cc1              pIC50                 5.92
3  CCOC(=O)C/N=c1\nc(-c2ccccc2)n(-c2ccc([N+](=O)[O-])cc2)s1              pIC50                 6.00
4  CCOC(=O)C/N=c1\nc(-c2ccccc2)n(-c2ccccc2)s1              pIC50                 5.74
5  Br.OCC/N=c1\nc(-c2cccc3ccccc23)n(-c2ccccc2)s1              pIC50                 6.52
6  Br.CCOC(=O)C/N=c1\nc(-c2ccccc2)n(-c2ccccc2)s1              pIC50                 5.15

----------
experimental system: Glycogen synthase kinase-3 beta (Homo sapiens, UniProt P49841)
experimental protocol: Inhibition of human recombinant GSK3beta after 30 mins by luminescence assay in presence of ATP
pIC50: −log10 of the molar value.
measured quantity: pIC50

In [3]: df
Out[3]:
                             compound_smiles  quantitative_result
 0  Br.COc1ccc(-n2s/c(=N/CCO)nc2-c2ccccc2)cc1                 5.34
 1  CCCCC/N=c1\nc(-c2ccc(OC)cc2)n(-c2ccccc2)s1                 6.52
 2  Br.COc1ccc(-n2s/c(=N/Cc3cccnc3)nc2-c2ccccc2)cc1                 5.39
 3      CCCCCc1n/c(=N\Cc2cccnc2)sn1-c1ccccc1                 6.10
 4  Br.CCOC(=O)C/N=c1\nc(-c2ccccc2)n(-c2ccc(OC)cc2)s1                 5.70
 5  Br.COc1ccc(-c2n/c(=N\c3ccccc3)sn2-c2ccccc2)cc1                 5.96
 6        Br.N=c1nc(-c2ccccc2)n(-c2ccccc2)s1                 6.22
 7  Br.c1ccc(-c2n/c(=N\Cc3cccnc3)sn2-c2ccccc2)cc1                 5.89
 8  Br.c1ccc(-c2n/c(=N\C3CCCCC3)sn2-c2ccccc2)cc1                 5.68
 9  c1ccc(-n2s/c(=N/Cc3cccnc3)nc2-c2cccc3ccccc23)cc1                 6.05
10  Br.c1ccc(-c2n/c(=N\CCN3CCOCC3)sn2-c2ccccc2)cc1                 6.05

----------
As shown below, each of these compounds has a reported pIC50 value.
experimental system: Glycogen synthase kinase-3 beta (Homo sapiens)
experimental protocol: Inhibition of human recombinant GSK3beta after 30 mins by luminescence assay in presence of ATP
pIC50: −log10 of the molar value.
measured quantity: pIC50

                             compound_smiles                       experimental_system  quantitative_result
 0  Br.FC(F)(F)c1ccc(-c2n/c(=N\Cc3cccnc3)sn2-c2ccccc2)cc1  Glycogen synthase kinase-3 beta (Homo sapiens)                 5.80
 1  O=[N+]([O-])c1ccc(-n2s/c(=N/Cc3cccnc3)nc2-c2ccccc2)cc1  Glycogen synthase kinase-3 beta (Homo sapiens)                 6.00
 2  c1ccc(-c2n/c(=N\Cc3cccnc3)sn2-c2cccc3ccccc23)cc1  Glycogen synthase kinase-3 beta (Homo sapiens)                 5.70
 3   Br.OCC/N=c1\nc(-c2ccccc2)n(-c2ccccc2)s1  Glycogen synthase kinase-3 beta (Homo sapiens)                 5.70
 4  c1ccc(Cn2s/c(=N/Cc3cccnc3)nc2-c2ccccc2)cc1  Glycogen synthase kinase-3 beta (Homo sapiens)                 5.96
 5  CCCCC/N=c1\nc(-c2ccc(OC)cc2)n(-c2ccccc2)s1.Cl  Glycogen synthase kinase-3 beta (Homo sapiens)                 5.96
 6   Cl.OCC/N=c1\nc(-c2ccccc2)n(-c2ccccc2)s1  Glycogen synthase kinase-3 beta (Homo sapiens)                 6.22
 7  c1ccc(-n2s/c(=N/Cc3cccnc3)nc2-c2cccc3ccccc23)cc1  Glycogen synthase kinase-3 beta (Homo sapiens)                 5.68
 8  Br.CCOC(=O)C/N=c1\nc(-c2ccc(OC)cc2)n(-c2ccccc2)s1  Glycogen synthase kinase-3 beta (Homo sapiens)                 6.30
 9       Br.Cc1n/c(=N\Cc2cccnc2)sn1-c1ccccc1  Glycogen synthase kinase-3 beta (Homo sapiens)                 6.22
10  Br.COc1ccc(-c2n/c(=N\Cc3cccnc3)sn2-c2ccccc2)cc1  Glycogen synthase kinase-3 beta (Homo sapiens)                 5.92
